All figures here come from the Human Domainome abundance scans (Beltran et al. 2025).

I'd be grateful if you could share measured abundance fitness for these entries.
B1: Histone-lysine N-methyltransferase SETD2, residues 2382 to 2430; numbered along this chain, Q9BYW2 (parent)
chain: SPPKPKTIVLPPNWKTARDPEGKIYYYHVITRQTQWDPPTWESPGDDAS

Variants of: B1
Experiment: abundance fitness (aPCA) (normalised: wild type 0, dead -1); higher = more abundant; growth selection in yeast, the domain comes from the species named
Conditions: Homo sapiens
# print the numeric value only

// Input: D46W . Output its abundance fitness only. -0.358

// Input: S49I . Output its abundance fitness only. -0.088

// Input: P12Q . Output its abundance fitness only. -0.238

// Input: N13Q . Output its abundance fitness only. -0.148

// Input: D37I . Output its abundance fitness only. 0.005

// Input: V29Y . Output its abundance fitness only. -0.258

// Input: R18V . Output its abundance fitness only. -0.26

// Input: P12T . Output its abundance fitness only. 0.092

// Input: G45I . Output its abundance fitness only. 0.125
